Reported pIC50 values follow for various compounds
Target: Escherichia coli LpxH (UDP-2,3-diacylglucosamine hydrolase) (Escherichia coli (strain K12), UniProt P43341)
Sequence (P43341 whole entry): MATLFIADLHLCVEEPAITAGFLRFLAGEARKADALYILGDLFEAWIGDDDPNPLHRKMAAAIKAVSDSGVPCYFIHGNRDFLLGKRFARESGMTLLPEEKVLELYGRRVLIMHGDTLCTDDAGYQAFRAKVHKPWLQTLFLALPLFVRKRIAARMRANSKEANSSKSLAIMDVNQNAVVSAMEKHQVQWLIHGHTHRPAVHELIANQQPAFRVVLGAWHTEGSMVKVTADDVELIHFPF
Assay: 50% Inhibitory Concentration (IC50) to LpxH, UMP/CMP-Glo Glycosyltransferase Assay kit
Keep in mind that pIC50 stands for -log10 of concentration in molar terms.

Previously resolved entries follow.
compound="O=C1CC(N2C[C@@H]3C[C@H]2CN3)CN1c1ccc(S(=O)(=O)N2CCN(c3cc(C(F)(F)F)cc(Cl)n3)CC2)cc1 (stereo partly shown)" measurement_label=pIC50 test_value=7.29
compound=O=C1OC2(CNC2)CN1c1ccc(S(=O)(=O)N2CCN(c3cc(C(F)(F)F)cc(Cl)n3)CC2)cc1 measurement_label=pIC50 test_value=6.89
compound=N[C@@H]1CC(=O)N(c2ccc(S(=O)(=O)N3CCN(c4cc(C(F)(F)[C@@H]5CCCNC5)cc(Cl)n4)CC3)cc2)C1 measurement_label=pIC50 test_value=7.71
compound="O=C1CC2(CCCCN2)CN1c1ccc(S(=O)(=O)N2CCN(c3cc(C(F)(F)F)cc(Cl)n3)CC2)cc1 (stereo not shown)" measurement_label=pIC50 test_value=7.71
compound="O=C1CC(CNCC2CNC2)CN1c1ccc(S(=O)(=O)N2CCN(c3cc(C(F)(F)F)cc(Cl)n3)CC2)cc1 (stereo not shown)" measurement_label=pIC50 test_value=7.32

Could you now look at the following compound, please?
# input Quick check: pIC50 of N[C@@H]1CC(=O)N(c2ccc(S(=O)(=O)N3CCN(c4cc(C(F)(F)C5=CCNCC5)cc(Cl)n4)CC3)cc2)C1 ?
# output 6.70
